testMethodNotes: Half life in dog at 0.4 mg/kg, iv
Format: ADME, organism-based, Canis lupus familiaris
Parameters: dose 0.4 mg/kg, route intravenous
measurementContext: in vivo
reportedProperty: half-life

>  <smilesRecord>
CN1CC[C@H](N(C)C(=O)N2CC(c3cc(F)ccc3F)=C[C@@]2(CO)c2ccccc2)[C@H](F)C1

>  <result>
2 h

$$$$

---

testMethodNotes: Clearance in rat at 1 mg/kg, iv
Assay type: ADME, organism-based
Set-up: dose 1 mg/kg, route intravenous
measurementContext: in vivo

>  <smilesRecord>
CN1CC[C@H](N(C)C(=O)N2CC(c3cc(F)ccc3F)=C[C@@]2(CO)c2ccccc2)[C@H](F)C1

>  <clearance>
66.7 mL/min/kg

$$$$
